From: patent US20160175306A1

# reported IC50; entries follow
- Target under test: human kinase Mps-1 (Homo sapiens)
- Construct: N-terminally GST-tagged human full length recombinant Mps-1 kinase; purchased Invitrogen, Karslruhe, Germany PV4071
- Sequence (P33981 whole entry): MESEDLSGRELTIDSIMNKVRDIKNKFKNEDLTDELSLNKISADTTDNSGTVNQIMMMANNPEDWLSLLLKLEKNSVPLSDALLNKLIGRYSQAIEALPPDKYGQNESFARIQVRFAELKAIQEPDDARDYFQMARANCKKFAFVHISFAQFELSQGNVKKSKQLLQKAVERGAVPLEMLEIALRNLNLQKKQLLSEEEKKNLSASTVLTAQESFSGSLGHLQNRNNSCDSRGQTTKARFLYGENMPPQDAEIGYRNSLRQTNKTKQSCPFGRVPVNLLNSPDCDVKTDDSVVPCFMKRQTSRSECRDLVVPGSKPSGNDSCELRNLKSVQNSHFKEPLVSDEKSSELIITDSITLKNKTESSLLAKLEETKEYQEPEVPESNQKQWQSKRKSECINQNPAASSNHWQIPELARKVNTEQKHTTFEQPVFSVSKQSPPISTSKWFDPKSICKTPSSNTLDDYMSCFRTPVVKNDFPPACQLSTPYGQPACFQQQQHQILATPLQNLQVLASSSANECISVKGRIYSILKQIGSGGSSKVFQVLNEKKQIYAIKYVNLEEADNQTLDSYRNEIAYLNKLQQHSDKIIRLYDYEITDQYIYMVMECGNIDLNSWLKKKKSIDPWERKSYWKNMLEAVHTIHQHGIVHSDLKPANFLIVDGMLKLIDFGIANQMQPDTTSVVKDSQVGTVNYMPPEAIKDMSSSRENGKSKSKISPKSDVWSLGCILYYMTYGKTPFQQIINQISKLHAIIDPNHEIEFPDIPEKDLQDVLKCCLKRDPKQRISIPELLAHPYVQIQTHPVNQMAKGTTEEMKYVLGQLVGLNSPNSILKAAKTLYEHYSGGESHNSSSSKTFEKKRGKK
- Method: Mps-1 Kinase Assay (TR-FRET)
- Assay type: biochemical
- Cond: 10 μM ATP
- Procedure: The human kinase Mps-1 phosphorylates a biotinylated substrate peptide. Detection of the phosphorylated product is achieved by time-resolved fluorescence resonance energy transfer (TR-FRET) from Europium-labelled anti-phospho-Serine/Threonine antibody as donor to streptavidin Labelled with cross-linked allophycocyanin (SA-XLent) as acceptor. Compounds are tested for their inhibition of the kinase activity. […]
Numbers only here, please. The scale is nM.

>  <Molecule>
C=C(c1cccc(F)c1)c1cc(NCCC(F)(F)F)c2ncc(-c3ccc(C(=O)NC4CC4)c(C)c3)n2n1 [Compound A24]

>  <Target under test>
human kinase Mps-1 (Homo sapiens)

>  <Unit of measurement>
nM

>  <IC50>
0.3

$$$$
>  <Molecule>
Cc1cc(-c2cnc3c(NCCC(F)(F)F)cc(C(O)c4cccc(F)c4O)nn23)ccc1C(=O)NC1CC1 (racemic) [Compound A3]

>  <Target under test>
human kinase Mps-1 (Homo sapiens)

>  <Unit of measurement>
nM

>  <IC50>
0.2

$$$$
>  <Molecule>
C=C(c1cc(NCCC(F)(F)F)c2ncc(-c3ccc(C(=O)NC4CC4)c(C)c3)n2n1)c1cccc(F)c1F [Compound A15]

>  <Target under test>
human kinase Mps-1 (Homo sapiens)

>  <Unit of measurement>
nM

>  <IC50>
0.4

$$$$
>  <Molecule>
Cc1cc(-c2cnc3c(NCCC(F)(F)F)cc(C(O)c4cc(F)ccc4F)nn23)ccc1C(=O)NC1CC1 (racemic) [Compound A11]

>  <Target under test>
human kinase Mps-1 (Homo sapiens)

>  <Unit of measurement>
nM

>  <IC50>
0.3

$$$$
>  <Molecule>
C=C(c1cccc(OC)c1)c1cc(NCCC(F)(F)F)c2ncc(-c3ccc(C(=O)NC4CC4)c(C)c3)n2n1 [Compound A8]

>  <Target under test>
human kinase Mps-1 (Homo sapiens)

>  <Unit of measurement>
nM

>  <IC50>
0.8

$$$$
>  <Molecule>
Cc1cc(-c2cnc3c(NCCC(F)(F)F)cc(C4(c5cc(F)ccc5F)CC4)nn23)ccc1C(=O)NC1CC1 [Compound A20]

>  <Target under test>
human kinase Mps-1 (Homo sapiens)

>  <Unit of measurement>
nM

>  <IC50>
0.8

$$$$
>  <Molecule>
COc1cccc(C(=O)c2cc(NCCC(F)(F)F)c3ncc(-c4ccc(C(=O)NC5CC5)c(C)c4)n3n2)c1 [Compound A7]

>  <Target under test>
human kinase Mps-1 (Homo sapiens)

>  <Unit of measurement>
nM

>  <IC50>
0.5

$$$$
>  <Molecule>
Cc1cc(-c2cnc3c(NCCC(F)(F)F)cc(C(=O)c4cccc(F)c4F)nn23)ccc1C(=O)NC1CC1 [Compound A14]

>  <Target under test>
human kinase Mps-1 (Homo sapiens)

>  <Unit of measurement>
nM

>  <IC50>
0.6

$$$$
>  <Molecule>
C=C(c1ccc(OC)cc1)c1cc(NCCC(F)(F)F)c2ncc(-c3ccc(C(=O)NC4CC4)c(C)c3)n2n1 [Compound A10]

>  <Target under test>
human kinase Mps-1 (Homo sapiens)

>  <Unit of measurement>
nM

>  <IC50>
0.5

$$$$
>  <Molecule>
COc1ccc(C(F)(F)c2cc(NCCC(F)(F)F)c3ncc(-c4ccc(C(=O)NC5CC5)c(C)c4)n3n2)cc1F [Compound A2]

>  <Target under test>
human kinase Mps-1 (Homo sapiens)

>  <Unit of measurement>
nM

>  <IC50>
0.6

$$$$

Request: State, in one line, measured IC50 of Cc1cc(-c2cnc3c(NCCC(F)(F)F)cc(C(F)(F)c4cccc(F)c4F)nn23)ccc1C(=O)NC1CC1 [Compound A18]
Response: 1.5

Request: State, in one line, measured IC50 of COc1ccc(C(=O)c2cc(NCCC(F)(F)F)c3ncc(-c4ccc(C(=O)NC5CC5)c(C)c4)n3n2)cc1 [Compound A9]
Response: 1.2

Request: State, in one line, measured IC50 of C=C(c1cc(NCCC(F)(F)F)c2ncc(-c3ccc(C(=O)NC4CC4)c(C)c3)n2n1)c1cc(F)ccc1F [Compound A19]
Response: 0.6

Request: State, in one line, measured IC50 of Cc1cc(-c2cnc3c(NCCC(F)(F)F)cc(C(C)(O)c4cccc(F)c4O)nn23)ccc1C(=O)NC1CC1 (racemic) [Compound A4]
Response: 0.3

Request: State, in one line, measured IC50 of Cc1cc(-c2cnc3c(NCCC(F)(F)F)cc(C(=O)c4cc(F)ccc4F)nn23)ccc1C(=O)NC1CC1 [Compound A12]
Response: 0.6

Request: State, in one line, measured IC50 of Cc1cc(-c2cnc3c(NCCC(F)(F)F)cc(C(F)(F)c4cc(F)ccc4F)nn23)ccc1C(=O)NC1CC1 [Compound A21]
Response: 0.5

Request: State, in one line, measured IC50 of Cc1cc(-c2cnc3c(NCCC(F)(F)F)cc(C4(c5cccc(F)c5)CC4)nn23)ccc1C(=O)NC1CC1 [Compound A25]
Response: 0.9

Request: State, in one line, measured IC50 of Cc1cc(-c2cnc3c(NCCC(F)(F)F)cc(C(F)c4cccc(F)c4)nn23)ccc1C(=O)NC1CC1 (racemic) [Compound A5]
Response: 0.7

Request: State, in one line, measured IC50 of C=C(c1cc(NCCC(F)(F)F)c2ncc(-c3ccc(C(=O)NC4CC4)c(C)c3)n2n1)c1cc(F)ccc1O [Compound A22]
Response: 0.4
